Cited source for all entries: ChEMBL document CHEMBL5649168

Molecular target: Tyrosine-protein kinase receptor TYRO3 (Homo sapiens, UniProt Q06418)
Sequence (Q06418 whole entry): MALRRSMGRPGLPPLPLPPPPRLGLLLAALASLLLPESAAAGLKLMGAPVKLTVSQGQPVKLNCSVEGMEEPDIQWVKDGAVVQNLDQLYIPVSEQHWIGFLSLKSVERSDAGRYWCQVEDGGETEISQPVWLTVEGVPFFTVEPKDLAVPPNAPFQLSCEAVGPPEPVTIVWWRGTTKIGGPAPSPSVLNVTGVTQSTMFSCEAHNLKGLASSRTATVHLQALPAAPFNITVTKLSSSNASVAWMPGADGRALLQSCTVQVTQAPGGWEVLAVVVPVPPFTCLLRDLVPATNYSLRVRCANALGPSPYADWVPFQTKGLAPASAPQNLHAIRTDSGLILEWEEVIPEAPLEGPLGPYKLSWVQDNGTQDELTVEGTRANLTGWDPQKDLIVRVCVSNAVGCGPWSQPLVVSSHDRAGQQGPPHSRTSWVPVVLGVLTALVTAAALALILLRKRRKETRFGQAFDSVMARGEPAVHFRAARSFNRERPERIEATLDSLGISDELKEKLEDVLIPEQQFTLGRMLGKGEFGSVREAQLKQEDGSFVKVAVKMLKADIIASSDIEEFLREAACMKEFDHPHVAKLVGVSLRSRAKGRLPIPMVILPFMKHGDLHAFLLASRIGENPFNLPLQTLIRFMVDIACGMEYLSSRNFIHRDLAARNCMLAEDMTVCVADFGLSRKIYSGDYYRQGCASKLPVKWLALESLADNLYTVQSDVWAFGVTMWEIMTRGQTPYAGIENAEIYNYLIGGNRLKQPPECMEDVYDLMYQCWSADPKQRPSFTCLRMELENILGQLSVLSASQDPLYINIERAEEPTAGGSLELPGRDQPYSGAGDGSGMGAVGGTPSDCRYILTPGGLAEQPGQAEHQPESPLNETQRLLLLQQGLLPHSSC
reported-endpoint: IC50

Recorded IC50 (compound CNC(=O)Nc1ccc2c(c1)CC[C@@]21OC(=O)N(CC(=O)N(Cc2ccc(F)cc2)[C@@H](C)C(F)(F)F)C1=O [A-485] ): > 10 µM

* * *

tested on: OCI-Ly3; experiment: Antiproliferative activity against human OCILY3 cells assessed as inhibition of cell viability incubated for 3 to 5 days by Celltiter-Glo luminescent assay; type: functional, cell-based
reported-endpoint: pEC50
# reply with the number alone; pEC50 is -log10 of concentration in mol/L

get_value(item= CNC(=O)Nc1ccc2c(c1)CC[C@@]21OC(=O)N(CC(=O)N(Cc2ccc(F)cc2)[C@@H](C)C(F)(F)F)C1=O [A-485] , readout=pEC50) returns 6.31

* * *

pIC50: −log10 of the molar value.
reported-endpoint: pIC50

The compound CNC(=O)Nc1ccc2c(c1)CC[C@@]21OC(=O)N(CC(=O)N(Cc2ccc(F)cc2)[C@@H](C)C(F)(F)F)C1=O [A-485] on Rho-associated protein kinase 2 (Homo sapiens, UniProt O75116): pIC50 was < 5.00

* * *

assay: AUC in CB17 SCID mouse xenografted with LuCaP-77 CR cell at 100 mg/kg, ip administered for 7 days; assay type: ADME, organism-based; details: in vivo, time 7 day
reported-endpoint: AUC at 168 h (µg·h/mL)
Response body: numeric value in µg·h/mL, unit text excluded.

Reported AUC at 168 h of CNC(=O)Nc1ccc2c(c1)CC[C@@]21OC(=O)N(CC(=O)N(Cc2ccc(F)cc2)[C@@H](C)C(F)(F)F)C1=O : 417
